Where do the numbers come from? From paper PMC3173227.

# measured_on: T1, human Ube2T (human, UniProt Q9NPD8 1-197)
# T1 sequence (looked up): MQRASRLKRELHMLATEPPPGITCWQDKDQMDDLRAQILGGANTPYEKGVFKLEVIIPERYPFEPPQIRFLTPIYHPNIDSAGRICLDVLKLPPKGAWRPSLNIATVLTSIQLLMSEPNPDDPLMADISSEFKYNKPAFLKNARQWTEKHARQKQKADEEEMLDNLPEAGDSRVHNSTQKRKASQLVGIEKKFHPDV
# method_notes: ITC
property_name: pKd
# pKd = -log10(concentration in molar units)

Problem: If you can, please state the reported pKd value of human FANCL RING domain (residues 289-375) (domain or fragment, UniProt Q9NW38 289-375, looked up) EIDFPARAILEKSDFTMDCGICYAYQLDGTIPDQVCDNSQCGQPFHQICLYEWLRGLLTSRQSFNIIFGECPYCSKPITLKMSGRKH .
Result: 6.34
